// IC50 lookup, one value per entry
target: PE-labeled human PD-L1-Ig binding to Jurkat cell line over-expressing human PD-1 (Jurkat-PD-1) (Homo sapiens); construct: expressed in transfected cells; host or cells: Jurkat; test: Jurkat-PD-1 Cell Binding High-Content Screening Assay (CBA): Method 1; settings: Jurkat-hPD-1 cells, PE-labeled PD-L1-Ig 20 nM final; read-out: Jurkat HPDL1 PD1 IC50 (uM) (Method 1)
Sequence (Q15116 25-288): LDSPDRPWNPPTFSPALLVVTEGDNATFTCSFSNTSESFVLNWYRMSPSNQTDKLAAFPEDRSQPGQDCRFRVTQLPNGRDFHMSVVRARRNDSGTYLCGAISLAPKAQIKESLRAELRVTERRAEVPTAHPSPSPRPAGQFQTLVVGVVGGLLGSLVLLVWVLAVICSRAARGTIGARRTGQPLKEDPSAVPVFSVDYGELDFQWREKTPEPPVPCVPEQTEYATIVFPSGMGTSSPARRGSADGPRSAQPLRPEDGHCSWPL
Bridge positions count the residues as written; N and C are the ends. Square brackets hold non-standard residues; d marks the D form. Peptide text beside a SMILES is read from it. Bip = N[C@@H](Cc1ccc(-c2ccccc2)cc1)C(=O)O; Phe(3-OMe) = COc1cccc(C[C@H](N)C(=O)O)c1; d(aThr) = C[C@@H](O)[C@@H](N)C(=O)O; 4Pal = N[C@@H](Cc1ccncc1)C(=O)O; hSer = N[C@@H](CCO)C(=O)O; NMeA = CN[C@@H](C)C(=O)O; Dab = NCC[C@H](N)C(=O)O; Dap = NC[C@H](N)C(=O)O
Number only, in µM; omit the unit.

// solved cases for IC50 follow
molecule="COc1cccc(C[C@@H]2NC(=O)[C@H](CN)NC(=O)CSC[C@@H](C(=O)NCC(N)=O)NC(=O)[C@H](CO)NC(=O)[C@H](C(C)C)NC(=O)[C@H](CC(C)C)NC(=O)[C@H](CC(N)=O)NC(=O)[C@@H](CC(C)C)NC(=O)[C@H](C)N(C)C(=O)[C@H](C(C)C)NC(=O)[C@H](Cc3ccc(-c4ccccc4)cc3)NC(=O)[C@H](CC(C)C)NC(=O)[C@H](Cc3c[nH]c4ccccc34)NC(=O)[C@H](CC(=O)O)NC2=O)c1 [Compound 1522] ({CH2CO}-[Dap][Phe(3-OMe)]DWL[Bip]V[NMeA][dL]NLVSCG-NH2; thioether N-14)" measured_number=0.05
molecule="CC(C)C[C@@H]1NC(=O)[C@H](CCN)NC(=O)[C@@H](CC(C)C)NC(=O)[C@H](C)N(C)C(=O)[C@H](CCCNC(=N)N)NC(=O)[C@H](Cc2ccc(-c3ccccc3)cc2)NC(=O)[C@H](C(C)C)NC(=O)[C@H](Cc2c[nH]c3ccccc23)NC(=O)[C@H](CC(=O)O)NC(=O)[C@H](Cc2ccc(O)cc2)NC(=O)[C@H](CC(N)=O)NC(=O)CSC[C@@H](C(=O)N[C@@H](C)C(N)=O)NC(=O)[C@H]([C@@H](C)O)NC(=O)[C@H](C(C)C)NC1=O [Compound 1189] ({CH2CO}-NYDWV[Bip]R[NMeA][dL][Dab]LVTCA-NH2; thioether N-14)" measured_number=0.03
molecule="CC(C)C[C@@H]1NC(=O)[C@H](Cc2c[nH]c3ccccc23)NC(=O)[C@H](CC(=O)O)NC(=O)[C@H](Cc2ccc(O)cc2)NC(=O)[C@H](Cc2ccccc2)NC(=O)CSC[C@@H](C(=O)NCC(N)=O)NC(=O)[C@H](CO)NC(=O)[C@H](C(C)C)NC(=O)[C@H](CC(C)C)NC(=O)[C@H](CC(N)=O)NC(=O)[C@H](CCO)NC(=O)[C@H](C)N(C)C(=O)[C@H](C(C)C)NC(=O)[C@H](Cc2ccc(-c3ccccc3)cc2)NC1=O [Compound 1814] ({CH2CO}-FYDWL[Bip]V[NMeA][hSer]NLVSCG-NH2; thioether N-14)" measured_number=0.3
molecule="CC(C)C[C@@H]1NC(=O)[C@H](Cc2c[nH]c3ccccc23)NC(=O)[C@H](CC(=O)O)NC(=O)[C@H](Cc2ccc(O)cc2)NC(=O)[C@H](Cc2ccccc2)NC(=O)CSC[C@@H](C(=O)N[C@@H](C)C(N)=O)NC(=O)[C@H](CO)NC(=O)[C@H](C(C)C)NC(=O)[C@H](CC(C)C)NC(=O)[C@H](CC(N)=O)NC(=O)[C@@H](C)NC(=O)[C@H](C)N(C)C(=O)[C@H](CCCNC(=N)N)NC(=O)[C@H](Cc2ccc(-c3ccccc3)cc2)NC1=O [Compound 1781] ({CH2CO}-FYDWL[Bip]R[NMeA][dA]NLVSCA-NH2; thioether N-14)" measured_number=0.08
molecule="CC(C)C[C@@H]1NC(=O)[C@H](Cc2c[nH]c3ccccc23)NC(=O)[C@H](CC(=O)O)NC(=O)[C@H](Cc2ccncc2)NC(=O)[C@H](CN)NC(=O)CSC[C@@H](C(=O)NCC(N)=O)NC(=O)[C@H](CO)NC(=O)[C@H](C(C)C)NC(=O)[C@H](CC(C)C)NC(=O)[C@H](CC(N)=O)NC(=O)[C@@H](CC(C)C)NC(=O)[C@H](C)N(C)C(=O)[C@H](C(C)C)NC(=O)[C@H](Cc2ccc(-c3ccccc3)cc2)NC1=O [Compound 1549] ({CH2CO}-[Dap][4Pal]DWL[Bip]V[NMeA][dL]NLVSCG-NH2; thioether N-14)" measured_number=0.04
molecule="CC(C)C[C@@H]1NC(=O)[C@H](CCCNC(=N)N)NC(=O)[C@@H](Cc2cnc[nH]2)NC(=O)[C@H](C)N(C)C(=O)[C@H](CCCNC(=N)N)NC(=O)[C@H](Cc2ccc(-c3ccccc3)cc2)NC(=O)[C@H](C(C)C)NC(=O)[C@H](Cc2c[nH]c3ccccc23)NC(=O)[C@H](CC(=O)O)NC(=O)[C@H](Cc2ccc(O)cc2)NC(=O)[C@H](Cc2ccccc2)NC(=O)CSC[C@@H](C(=O)NCC(N)=O)NC(=O)[C@H](CO)NC(=O)[C@H](C(C)C)NC1=O [Compound 1022] ({CH2CO}-FYDWV[Bip]R[NMeA][dH]RLVSCG-NH2; thioether N-14)" measured_number=0.64
molecule="CC(C)C[C@@H]1NC(=O)[C@H](Cc2c[nH]c3ccccc23)NC(=O)[C@H](CC(=O)O)NC(=O)[C@H](Cc2ccc(O)cc2)NC(=O)[C@H](Cc2ccccc2)NC(=O)CSC[C@@H](C(=O)NCC(N)=O)NC(=O)[C@H](CO)NC(=O)[C@H](C(C)C)NC(=O)[C@H](CC(C)C)NC(=O)[C@H](CC(N)=O)NC(=O)[C@@H]([C@@H](C)O)NC(=O)[C@H](C)N(C)C(=O)[C@H](C(C)C)NC(=O)[C@H](Cc2ccc(-c3ccccc3)cc2)NC1=O [Compound 1752] ({CH2CO}-FYDWL[Bip]V[NMeA][d(aThr)]NLVSCG-NH2; thioether N-14)" measured_number=0.03

Alright, here's another molecule for you.
Lookup: Reported IC50, molecule CC(C)C[C@@H]1NC(=O)[C@H](CC(N)=O)NC(=O)[C@@H](CC(C)C)NC(=O)[C@H](C)N(C)C(=O)[C@H](C(C)C)NC(=O)[C@H](Cc2ccc(-c3ccccc3)cc2)NC(=O)[C@H](CCN)NC(=O)[C@H](Cc2c[nH]c3ccccc23)NC(=O)[C@H](CC(=O)O)NC(=O)[C@H](Cc2ccc(O)cc2)NC(=O)[C@H](Cc2ccccc2)NC(=O)CSC[C@@H](C(=O)N[C@@H](C)C(N)=O)NC(=O)[C@H](CO)NC(=O)[C@H](CC(=O)O)NC1=O [Compound 2026] ({CH2CO}-FYDW[Dab][Bip]V[NMeA][dL]NLDSCA-NH2; thioether N-14) : ____
Found: 0.12

All figures here come from patent US20240409585A1.
